test system: IGROV1 ovarian; experiment: NCI-60 one-dose screen, 48 h (100 = growth as untreated, 0 = no growth, -100 = all killed); details: 10 µM unless noted
Compounds without any hit were thinned out: in the full panel of roughly 83,000, 20% have a hit.
READOUT: growth (%)
Expressed in %, but write only the number.

Query string: Provide growth, tested on IGROV1 ovarian, for CS(=O)(=O)c1c(Nc2ccccc2)n[nH]c1N .
Result string: 112

Query string: Provide growth, tested on IGROV1 ovarian, for Cc1ccc(S(=O)(=O)n2cc(-c3csc(-c4cn(C)c5ncccc45)n3)c3ccccc32)cc1 .
Result string: 56.3

Query string: Provide growth, tested on IGROV1 ovarian, for CN1CCCCC1CCN1c2ccccc2Sc2ccc(Br)cc21 (stereo unspecified) .
Result string: 35.9

Query string: Provide growth, tested on IGROV1 ovarian, for COc1ccc(-c2nc(Nc3cc(C)[nH]n3)c3ccccc3n2)cc1 .
Result string: 1.47

Query string: Provide growth, tested on IGROV1 ovarian, for COc1cc(C#N)cc(OC)c1OCCN(CCOc1c(OC)cc(C#N)cc1OC)S(=O)(=O)c1ccc(C)cc1 .
Result string: 77.3

Query string: Provide growth, tested on IGROV1 ovarian, for COc1ccc(C(=O)/C=C/c2cc3ccccc3[nH]c2=O)cc1 .
Result string: 50.5

Value source: PubChem BioAssay (NCI)
